Data credit: patent US10154992B2

Test system: Tat-hybrid reporter cell lines (HeLa)
Experiment: MTT cell viability run in parallel with the Tat-hybrid assay
Type: cell-based
Settings: Table 6; at 50,000 nM
READOUT_TYPE: Tat hybrid cell viability at 50,000 nM

Answered examples (5):
COc1ccc(-c2cc(-c3ccccc3)nc3sc(C(N)=O)c(N)c23)cc1 [drawing 268]    Y (Y = 30-60%)
NC(=O)c1sc2nc(C3CC3)cc(-c3ccc(Cl)cc3)c2c1N    Y (Y = 30-60%)
NC(=O)c1sc2nc3c(cc2c1N)CCC3    X (X = >60%)
Cc1ccnc2sc(C(N)=O)c(N)c12    X (X = >60%)
NC(=O)c1sc2[nH]c(=O)c(C(=O)O)cc2c1N    X (X = >60%)

We next turn to a different molecule, shown below.
Exercise: Item CC(=O)C1=C(C)Nc2sc(C(N)=O)c(N)c2C1c1ccccc1 (stereo not drawn) has what recorded Tat hybrid cell viability at 50,000 nM?
Key: Y (Y = 30-60%)

* * *

Provide the recorded IC50 for the entries that follow.
Tested on: HIV-1 provirus in U1 cells
Test: U1 activation (latency) assay, p24 ELISA
Type: cell-based
Conditions: Human immunodeficiency virus 1; Table 5; read-out: U1 IC50

Exercise: Item under review: NC(=O)c1sc2cncc(N3CCC(Oc4ccccc4)CC3)c2c1N [drawing 139] . Reported IC50?
Key: < 100 nM

Exercise: Record request: IC50 value, item NC(=O)c1sc2cncc(N3CCCC(COc4ccccc4F)C3)c2c1N (stereo not drawn)
Key: > 500 nM

Exercise: Can you look up the measured IC50 of CN(C)c1ccnc2sc(C(N)=O)c(N)c12 [drawing 152] for me?
Key: > 500 nM

Exercise: # get_value(readout='IC50', item= "NC(=O)c1cc2c(-c3cnc4ccccc4c3)cncc2s1" )
Key: < 100 nM

Exercise: What does the data say about its IC50? Entry: "CCOc1ccc(-c2cncc3sc(C(N)=O)cc23)cc1"
Key: < 100 nM

Exercise: Query: IC50; subject: NC(=O)c1sc2cncc(-c3ccc4c(c3)CCO4)c2c1N [drawing 151]
Key: < 100 nM

* * *

Test: MTT cell viability in Jurkat replication assay
Format: cell-based
Conditions: human, Jurkat (E6-1) cells, pH 7.4; Table 5; read-out: Jurkat TC50
READOUT_TYPE: CC50

Exercise: For the molecule shown here, "NC(=O)c1cc2c(-c3ccc4ccccc4c3)cncc2s1" , give the reported CC50.
Key: < 40 µM

Exercise: Entry COc1ccc(-c2cncc3sc(C(N)=O)cc23)cc1 [drawing 129] : reported CC50 = ?
Key: < 40 µM

Exercise: // query CC50 value for entry CC(=O)N1CCN(c2cncc3sc(C(N)=O)c(N)c23)CC1 [drawing 144]
Key: > 40 µM

Exercise: Sample "NC(=O)c1cc2c(-c3cnc4ccccc4c3)cncc2s1" — what was its CC50?
Key: > 40 µM

* * *

Assay: MTT cell viability run in parallel with the Tat-hybrid assay
Type: cell-based
Conditions: human, Tat-hybrid reporter cell lines (HeLa); Table 5; read-out: Tat hybrid TC50
READOUT_TYPE: CC50 at 48 h

Exercise: # query: CC50 at 48 h of entry NC(=O)c1sc2cncc(N3CCC(Oc4ccccc4)CC3)c2c1N [drawing 139]
Key: > 40 µM

Exercise: Consider the molecule "NC(=O)c1sc2cncc(N3CCOCC3)c2c1N" and give its measured CC50 at 48 h.
Key: < 40 µM

Exercise: For "NC(=O)c1sc2cncc(N3CCN(C=O)CC3)c2c1N" , what is its reported CC50 at 48 h?
Key: < 40 µM

Exercise: Value lookup for CC50 at 48 h; key = "NC(=O)c1cc2c(-c3ccc(Oc4ccccc4)cc3)cncc2s1"
Key: < 40 µM

Exercise: Reported CC50 at 48 h for "NC(=O)c1cc2c(-c3cc4ccccc4o3)cncc2s1" : what is it?
Key: > 40 µM

Exercise: Which value of CC50 at 48 h has been reported for "CNC(=O)c1ccc(-c2cncc3sc(C(N)=O)c(N)c23)cc1" in the records?
Key: < 40 µM

Exercise: Recorded CC50 at 48 h for "Cc1cccc(N2CCN(c3cncc4sc(C(N)=O)c(N)c34)CC2)n1" , please?
Key: < 40 µM

Exercise: Data request, read-out CC50 at 48 h, for "NC(=O)c1cc2c(N3CCOCC3)cncc2s1"
Key: > 40 µM

Exercise: Report CC50 at 48 h for "NC(=O)c1sc2cncc(-c3cccc4cccnc34)c2c1N" please.
Key: > 40 µM

Exercise: Value lookup for CC50 at 48 h; key = "Cc1noc(C)c1C(=O)N1CCN(c2cncc3sc(C(N)=O)c(N)c23)CC1"
Key: < 40 µM

Exercise: Please look up its CC50 at 48 h: "NC(=O)c1cc2c(-c3ccc4ccccc4c3)cncc2s1"
Key: > 40 µM
